target: HLA-A*68:01; assay: IEDB peptide-MHC binding, purified MHC/competitive/radioactivity; filed as Kd, often an IC50 or EC50 that approximates it; bounds were set here for any values at or beyond the usual limits of such assays; settings: source organism: Vaccinia virus WR
Labelling: Kd reported below 200 nM becomes Met; at or above becomes Not met.

- chain_sequence: "EVRIPVDLVK"
  qualitative_label: "Not met"
- chain_sequence: "GMNDYLGIFK"
  qualitative_label: "Not met"
- chain_sequence: "GAAVTLNRIK"
  qualitative_label: "Not met"
- chain_sequence: "DFWRLYNSLK"
  qualitative_label: "Not met"
- chain_sequence: "IIDAKNDDWK"
  qualitative_label: "Not met"
- chain_sequence: "DTSASEIKDR"
  qualitative_label: "Met"
- chain_sequence: "LVEYGTVVNK"
  qualitative_label: "Not met"
- chain_sequence: "VFKGFSDKVR"
  qualitative_label: "Not met"
- chain_sequence: "LISLNSMYTR"
  qualitative_label: "Met"
- chain_sequence: "CSRMLDTSEK"
  qualitative_label: "Not met"
- chain_sequence: "SVSAKQLRTR"
  qualitative_label: "Met"
- chain_sequence: "TSLAIKNYY"
  qualitative_label: "Not met"
- chain_sequence: "TTYDFLARK"
  qualitative_label: "Met"
- chain_sequence: "FAYVMNIER"
  qualitative_label: "Met"
- chain_sequence: "ALDGTFQRK"
  qualitative_label: "Not met"
- chain_sequence: "VSDLYTSMR"
  qualitative_label: "Not met"
- chain_sequence: "LLNETAKVIK"
  qualitative_label: "Not met"
- chain_sequence: "EMVDELVTR"
  qualitative_label: "Met"
- chain_sequence: "MVIENGILKK"
  qualitative_label: "Met"
- chain_sequence: "LLKILDNLR"
  qualitative_label: "Not met"
- chain_sequence: "LARRPTPKK"
  qualitative_label: "Not met"
- chain_sequence: "NMINKLYGY"
  qualitative_label: "Not met"

----------
target: HLA-A*33:01; assay: IEDB peptide-MHC binding, purified MHC/competitive/radioactivity; filed as Kd, often an IC50 or EC50 that approximates it; bounds were set here for any values at or beyond the usual limits of such assays; details: source organism: Vaccinia virus WR
endpoint_name: Kd

- chain_sequence: "PLTSLVITY"
  endpoint_value: "≥ 46.8 µM"
- chain_sequence: "DIALALEQY"
  endpoint_value: "≥ 23.9 µM"
- chain_sequence: "SIHLTKTDK"
  endpoint_value: "≥ 48.3 µM"
- chain_sequence: "YTISSESLVY"
  endpoint_value: "≥ 70 µM"

----------
molecular target: HLA-A*03:01; assay: IEDB peptide-MHC binding, purified MHC/competitive/radioactivity; filed as Kd, often an IC50 or EC50 that approximates it; bounds were set here for any values at or beyond the usual limits of such assays; conditions: source organism: Vaccinia virus WR
pKd: −log10 of the molar value.
In this section we review reported pKd values for a set of sequences.
endpoint_name: pKd

- chain_sequence: "STQSVLCVKK"
  target_of_assay: "HLA-A*03:01"
  endpoint_value: 6.93
- chain_sequence: "ATDYIASGQR"
  target_of_assay: "HLA-A*03:01"
  endpoint_value: 6.83
- chain_sequence: "VILFIMFMLI"
  target_of_assay: "HLA-A*03:01"
  endpoint_value: 7.09
- chain_sequence: "CSRMLDTSEK"
  target_of_assay: "HLA-A*03:01"
  endpoint_value: 6.00
- chain_sequence: "CANGWIQYDK"
  target_of_assay: "HLA-A*03:01"
  endpoint_value: 6.05
- chain_sequence: "IPFIAYFVLM"
  target_of_assay: "HLA-A*03:01"
  endpoint_value: 6.18
